So I've got pIC50 readings for Cholecystokinin receptor type A (Cavia porcellus), take a look.
pIC50: −log10 of the molar value.
Measurement name: pIC50

These solved cases illustrate the format of a correct answer.
In [3]: df
Out[3]:
                                   compound  observed_measurement
0  Cc1cccc(NC(=O)N[C@H](CSCc2ccccc2)C(=O)N2CCC(C(=O)c3ccccc3)CC2)c1                  5.89
1  Cc1cccc(NC(=O)N[C@H](COCc2ccccc2)C(=O)N2CCCC(C(=O)Nc3ccccc3)C2)c1 (some centres undefined)                  5.66

1. Cc1cccc(NC(=O)N[C@H](CCC(=O)OCc2ccccc2)C(=O)N2CCC(NC(=O)c3ccccc3)CC2)c1
2. Cc1cccc(NC(=O)N[C@H](CCC(=O)N2CCCC2)C(=O)N2CCC(C(=O)c3ccccc3)CC2)c1
Input: Rank 1 against 2 by their pIC50 values and give the higher one. Returns: label corresponding to the selected item.
Output: 1
(1: 6.01, 2: 5.72)
